Cited source: patent US20250186434A1

# target.under.test: HiBiT-tagged endogenous SOS1 protein (Homo sapiens)
# Construct: HEK293 cells were engineered to express a HiBiT-tagged endogenous SOS1 protein; endogenous in cells; host or cells: HEK293 (engineered, HiBiT knock-in at the endogenous SOS1 locus)
# Sequence (Q07889 whole entry): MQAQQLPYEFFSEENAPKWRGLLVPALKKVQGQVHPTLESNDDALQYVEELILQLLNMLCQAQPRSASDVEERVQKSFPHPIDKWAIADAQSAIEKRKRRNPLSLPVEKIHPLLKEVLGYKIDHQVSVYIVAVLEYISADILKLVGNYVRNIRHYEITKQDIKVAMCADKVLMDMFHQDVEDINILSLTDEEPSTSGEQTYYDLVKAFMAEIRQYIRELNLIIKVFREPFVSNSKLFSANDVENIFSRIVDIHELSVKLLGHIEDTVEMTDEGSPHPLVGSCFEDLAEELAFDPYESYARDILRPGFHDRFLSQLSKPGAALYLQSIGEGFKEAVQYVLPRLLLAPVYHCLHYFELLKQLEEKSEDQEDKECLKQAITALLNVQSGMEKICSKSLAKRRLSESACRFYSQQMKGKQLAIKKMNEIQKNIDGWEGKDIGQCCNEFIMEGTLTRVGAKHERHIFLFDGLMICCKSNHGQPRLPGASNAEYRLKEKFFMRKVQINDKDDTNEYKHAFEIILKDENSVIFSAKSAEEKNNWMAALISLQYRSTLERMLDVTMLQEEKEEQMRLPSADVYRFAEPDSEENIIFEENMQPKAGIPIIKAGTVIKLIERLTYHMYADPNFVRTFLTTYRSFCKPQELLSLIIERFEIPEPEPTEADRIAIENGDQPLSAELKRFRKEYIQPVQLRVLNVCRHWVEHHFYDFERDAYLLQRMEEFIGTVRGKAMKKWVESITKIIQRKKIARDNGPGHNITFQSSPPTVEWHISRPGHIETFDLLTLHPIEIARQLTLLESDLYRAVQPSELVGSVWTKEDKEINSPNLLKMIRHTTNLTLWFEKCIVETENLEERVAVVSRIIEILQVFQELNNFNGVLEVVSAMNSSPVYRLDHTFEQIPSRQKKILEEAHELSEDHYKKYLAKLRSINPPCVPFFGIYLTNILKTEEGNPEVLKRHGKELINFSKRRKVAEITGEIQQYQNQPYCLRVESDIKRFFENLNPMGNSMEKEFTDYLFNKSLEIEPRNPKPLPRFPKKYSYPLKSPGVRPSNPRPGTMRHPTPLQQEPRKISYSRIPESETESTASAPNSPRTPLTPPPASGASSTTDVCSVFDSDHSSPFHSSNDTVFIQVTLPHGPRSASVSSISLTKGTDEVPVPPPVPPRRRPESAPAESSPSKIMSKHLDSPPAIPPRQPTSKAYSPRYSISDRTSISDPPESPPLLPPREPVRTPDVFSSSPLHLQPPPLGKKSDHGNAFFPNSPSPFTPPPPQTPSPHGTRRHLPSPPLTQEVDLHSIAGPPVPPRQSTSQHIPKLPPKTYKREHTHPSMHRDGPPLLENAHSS
# assay.remarks: SOS1-HiBiT Degradation Assay
# Type: cell-based
# reported.conditions: HEK293 cells expressing HiBiT-tagged endogenous SOS1, 6 h treatment
Form field: Dmax (one value per entry).
observation.type: Dmax

molecule: Cc1c([C@@H](C)Nc2nnc(C)c3ccc(N4CCN(CCCCCN5CCC(c6cc7c(cc6F)C(=O)N(C6CCC(=O)NC6=O)C7)CC5)CC4)cc23)cccc1C(F)(F)F (some centres unmarked)
observed: ≥ 70%
--
molecule: Cc1c([C@@H](C)Nc2nnc(C)c3ccc(N4CCN(CCCCCN5CCN(C(=O)CNc6ccc(C7CCC(=O)NC7=O)cc6)CC5)CC4)cc23)cccc1C(F)(F)F (some centres unmarked)
observed: < 30%
--
molecule: Cc1c([C@@H](C)Nc2nnc(C)c3ccc(N4CCN(CCCCCCCCCN5CCN(C(=O)CNc6cccc7c(C8CCC(=O)NC8=O)nn(C)c67)CC5)CC4)cc23)cccc1C(F)(F)F (some centres unmarked)
observed: ≥ 70%
--
molecule: Cc1c([C@@H](C)Nc2nnc(C)c3ccc(N4CCN(CCCCCCCCCN5CCC(c6cc7c(cc6F)C(=O)N(C6CCC(=O)NC6=O)C7)CC5)CC4)cc23)cccc1C(F)(F)F (some centres unmarked)
observed: ≥ 70%
--
molecule: Cc1c([C@@H](C)Nc2nnc(C)c3ccc(N4CCN(CCCCCCCCCN5CCN(C(=O)CNc6ccc(C7CCC(=O)NC7=O)cc6)CC5)CC4)cc23)cccc1C(F)(F)F (some centres unmarked)
observed: ≥ 70%
